- systemTested: Neuropeptide S receptor (Mus musculus, UniProt Q8BZP8)
- Sequence (Q8BZP8 whole entry): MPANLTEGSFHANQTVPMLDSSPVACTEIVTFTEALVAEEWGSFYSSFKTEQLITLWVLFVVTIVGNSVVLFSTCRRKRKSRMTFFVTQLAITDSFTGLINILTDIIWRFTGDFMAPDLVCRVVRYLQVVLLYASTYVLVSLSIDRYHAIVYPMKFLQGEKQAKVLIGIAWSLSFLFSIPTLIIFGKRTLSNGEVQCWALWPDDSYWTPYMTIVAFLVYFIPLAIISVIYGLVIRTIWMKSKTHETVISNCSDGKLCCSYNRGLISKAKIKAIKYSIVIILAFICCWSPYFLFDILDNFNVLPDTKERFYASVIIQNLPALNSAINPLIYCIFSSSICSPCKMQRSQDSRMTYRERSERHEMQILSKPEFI
- measurementDescription: Agonist activity at mouse NPSR expressed in HEK293 cells assessed as increase in intracellular calcium mobilization by FLIPR
pEC50: −log10 of the molar value. Non-standard residues stand in square brackets, D forms with d. Residues, ends and D or L forms follow the SMILES beside them. Dap = NC[C@H](N)C(=O)O
readoutKind: pEC50

CSCC[C@H](NC(=O)CNC(=O)[C@@H](NC(=O)CNC(=O)[C@@H](NC(=O)CNC(=O)[C@H](CC(N)=O)NC(=O)[C@H](CN)NC(=O)[C@H](Cc1ccccc1)NC(=O)[C@@H](N)CO)C(C)C)[C@@H](C)O)C(=O)N[C@@H](CCCCN)C(=O)N[C@@H](CCCCN)C(=O)N[C@H](C(=O)N[C@@H](CO)C(=O)N[C@@H](Cc1ccccc1)C(=O)N[C@@H](CCC(N)=O)C(=O)N[C@@H](CCCNC(=N)N)C(=O)N[C@@H](C)C(=O)N[C@@H](CCCCN)C(=O)N[C@@H](CO)C(=O)O)[C@@H](C)O (H-SF[Dap]NGVGTGMKKTSFQRAKS-OH) ... 6.62
